The origin of these recorded values is ChEMBL document CHEMBL1151002.

- measurement notes: Log D is the log of the ratio of concentrations in each phase obtained from partitioning between octanol and 100 mM KH2PO4 buffer at pH 7.4.
- Format: physicochemical
- stated conditions: octanol/100 mM KH2PO4 buffer

compound: Cc1ccccc1S(=O)(=O)NC(=O)c1cccc(NC(=O)N[C@@H]2N=C(C3CCCCC3)c3ccccc3N(C)C2=O)c1
comparison symbol: =
logD: 2
//
compound: Cc1cccc(NC(=O)N[C@@H]2N=C(C3CCCCC3)c3ccccc3N(C)C2=O)c1
comparison symbol: >
logD: 4
//
compound: CC(C)S(=O)(=O)NC(=O)c1cccc(NC(=O)NC2N=C(C3CCCCC3)c3ccccc3N(C)C2=O)c1 (stereo not drawn)
comparison symbol: =
logD: 0.85
//
compound: CC(=O)NS(=O)(=O)c1cccc(NC(=O)NC2N=C(C3CCCCC3)c3ccccc3N(C)C2=O)c1 (stereo not drawn)
comparison symbol: =
logD: 0.72
//
compound: CN1C(=O)C(NC(=O)Nc2cccc(C(=O)O)c2)N=C(C2CCCCC2)c2ccccc21 (stereo not drawn)
comparison symbol: =
logD: 0.89
//
compound: CN1C(=O)C(NC(=O)Nc2cccc(C(=O)NS(C)(=O)=O)c2)N=C(C2CCCCC2)c2ccccc21 (stereo not drawn)
comparison symbol: =
logD: 0.34
//
compound: CN1C(=O)C(NC(=O)Nc2cccc(C(=O)NS(=O)(=O)c3ccccc3)c2)N=C(C2CCCCC2)c2ccccc21 (stereo not drawn)
comparison symbol: =
logD: 1.42
//
compound: CN1C(=O)C(NC(=O)Nc2cccc(S(=O)(=O)NC(=O)c3ccccc3)c2)N=C(C2CCCCC2)c2ccccc21 (stereo not drawn)
comparison symbol: =
logD: 1.78
